These entries and their values trace back to paper PMC9407945.

- target_under_test: SARS-CoV-2 spike ectodomain (S-ecto), Wuhan-hu-1 strain, 2P (SARS-CoV-2, Wuhan-hu-1, UniProt P0DTC2, 2P mutation at residues 986 and 987 | 2P mutation at residues 986 and 987, biotin (NHS-sulfo-LC-Biotin, EZ-link biotinylation kit))
- protocol_text: BLI
- test_parameters: both partners purified
value_type: kon (M⁻¹ s⁻¹)

1. humanized SW186 H4L4 (antibody, V domains shown) VH: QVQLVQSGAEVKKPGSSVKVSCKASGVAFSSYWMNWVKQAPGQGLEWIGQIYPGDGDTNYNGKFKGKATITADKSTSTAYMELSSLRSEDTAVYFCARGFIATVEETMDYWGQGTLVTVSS VL: DIQMTQSPSSLSASVGDRVTITCRASQDISNYLNWYQQKPGKTVKLLIYYTSRLHSGVPSRFSGSGSGTDYTLTISSLQPEDFATYFCQQSHTLPWTFGGGTKLEIK    216000
2. humanized SW186 H4L1 (antibody, V domains shown) VH: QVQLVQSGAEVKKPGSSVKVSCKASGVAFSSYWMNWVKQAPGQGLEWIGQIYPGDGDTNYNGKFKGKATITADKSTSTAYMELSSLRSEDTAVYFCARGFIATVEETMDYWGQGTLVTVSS VL: DIQMTQSPSSLSASVGDRVTITCRASQDISNYLNWYQQKPGKAPKLLIYYTSRLHSGVPSRFSGSGSGTDFTLTISSLQPEDFATYYCQQSHTLPWTFGGGTKLEIK    186000
